Sourced from paper PMC9090415

# tested_on: P. falciparum apicoplast DNA polymerase (Pf-apPOL) (Plasmodium falciparum, UniProt Q8ILY1)
# Sequence (Q8ILY1 entry or part of it): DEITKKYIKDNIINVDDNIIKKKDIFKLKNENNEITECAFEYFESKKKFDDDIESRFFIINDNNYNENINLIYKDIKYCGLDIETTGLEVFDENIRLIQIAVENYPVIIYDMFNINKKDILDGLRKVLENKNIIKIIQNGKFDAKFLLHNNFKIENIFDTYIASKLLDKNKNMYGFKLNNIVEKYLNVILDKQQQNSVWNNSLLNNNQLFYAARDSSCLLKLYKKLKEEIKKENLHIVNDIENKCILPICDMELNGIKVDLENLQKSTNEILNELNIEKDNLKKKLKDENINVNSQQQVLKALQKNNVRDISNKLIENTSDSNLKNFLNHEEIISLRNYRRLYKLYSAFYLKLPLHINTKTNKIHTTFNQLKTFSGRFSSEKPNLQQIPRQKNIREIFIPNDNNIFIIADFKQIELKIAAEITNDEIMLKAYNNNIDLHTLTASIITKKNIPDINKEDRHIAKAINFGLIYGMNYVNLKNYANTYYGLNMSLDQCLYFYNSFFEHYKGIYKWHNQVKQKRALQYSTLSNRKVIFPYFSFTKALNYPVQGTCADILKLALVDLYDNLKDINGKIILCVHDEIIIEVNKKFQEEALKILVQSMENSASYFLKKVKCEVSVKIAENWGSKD
# method: Fluorescence-based high-throughput DNA polymerase assay (molecular beacon), primary screen and dose-response;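 also: test concentration in µM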
# Type: biochemical
# experimental_conditions: DRC-1; 180'; conc 5
test_readout: % inhibition apPOL 180'

>>> result("O=C1Nc2ccc(I)cc2C1=Cc1cc(Br)c(O)c(Br)c1 [Molecule 27]")
"0.7186%"
>>> result("CC(C)CCNC(=O)c1cnn2c(O)cc(CSc3ccc(Cl)cc3)nc12 [Molecule 101]")
"-2.604%"
>>> result("COC(=O)c1sc(-c2ccc(C(C)(C)C)cc2)cc1NC(=O)CCC(=O)O [Molecule 87]")
"11.9548%"
>>> result("C=CC1=C(C)c2cc3[nH]c(cc4nc(cc5[nH]c(cc1n2)c(C)c5CCC(=O)O)C(CCC(=O)O)=C4C)c(C)c3C=C [Molecule 91]")
"71.3476%"

----------
# tested_on: bacteriophage T4 DNA polymerase (Enterobacteria phage T4)
# Construct: made in house
# method: Counter-screen against bacteriophage T4 DNA polymerase
# Type: biochemical
# experimental_conditions: DRC-2; read at 10'; concentration 20
Parameter threshold = 20%. Response is 1 (yes) when % inhibition T4 10' 20 meets or exceeds it, else 0 (no).

>>> category("Cn1nc(-c2nnc(-c3ccccc3F)o2)c2c1CCN(C(=O)c1ccccc1Cl)C2")
"0 (no)"
>>> category("Cc1ccc(N2CCC(NC(=O)Cc3cccs3)C2=O)cc1C (centres unmarked)")
"1 (yes)"
>>> category("Cc1ccsc1Cn1c(C)ccc1C")
"0 (no)"
>>> category("Cc1cc2[nH]c(C(=O)Nc3ccc(F)cc3)c(CN3CCOCC3)c2s1")
"1 (yes)"
>>> category("COc1ccc(/C=C/c2cc(C(=O)O)c3ccccc3n2)cc1")
"1 (yes)"
>>> category("O=C1CSC2=NC3=C(CCc4ccccc43)C(c3cccs3)N12 (centres unmarked)")
"0 (no)"
>>> category("CC(C)CC(C(=O)O)N1C(=O)C2C3C=CC(C2C1=O)C1C(=O)N(C(CC(C)C)C(=O)O)C(=O)C31 (centres unmarked)")
"0 (no)"
>>> category("Cc1nc(C)c2c(n1)N(CC1CCCCC1)C(=O)CC2")
"0 (no)"

----------
# tested_on: P. falciparum apicoplast DNA polymerase (Pf-apPOL) (Plasmodium falciparum, UniProt Q8ILY1)
# method: Fluorescence-based high-throughput DNA polymerase assay (molecular beacon), primary screen and dose-response;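 also: test concentration in µM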
# Assay type: biochemical
# experimental_conditions: first dose-response; 180'; concentration 20
test_readout: % inhibition apPOL 180'

>>> result("Cn1nc(-c2nc(-c3ccccc3)no2)c2c1CCN(C(=O)Cc1cccs1)C2 [Molecule 58]")
"21%"
>>> result("COc1ccccc1CC(=O)N1CCc2c(nc3cc(-c4ccccc4Cl)[nH]n3c2=O)C1 [Molecule 49]")
"20%"
>>> result("COc1ccc(C2CC(c3ccc(Cl)cc3Cl)Nc3nc(N)nn32)cc1OC (stereo not shown) [Molecule 43]")
"43%"
>>> result("Cn1nc(C(=O)N2CCc3c(nc4cc(-c5ccccc5)[nH]n4c3=O)C2)c2ccccc21 [Molecule 18]")
"39%"

----------
# tested_on: bacteriophage T4 DNA polymerase (Enterobacteria phage T4)
# Construct: made in house
# Sequence (P04415 1-898): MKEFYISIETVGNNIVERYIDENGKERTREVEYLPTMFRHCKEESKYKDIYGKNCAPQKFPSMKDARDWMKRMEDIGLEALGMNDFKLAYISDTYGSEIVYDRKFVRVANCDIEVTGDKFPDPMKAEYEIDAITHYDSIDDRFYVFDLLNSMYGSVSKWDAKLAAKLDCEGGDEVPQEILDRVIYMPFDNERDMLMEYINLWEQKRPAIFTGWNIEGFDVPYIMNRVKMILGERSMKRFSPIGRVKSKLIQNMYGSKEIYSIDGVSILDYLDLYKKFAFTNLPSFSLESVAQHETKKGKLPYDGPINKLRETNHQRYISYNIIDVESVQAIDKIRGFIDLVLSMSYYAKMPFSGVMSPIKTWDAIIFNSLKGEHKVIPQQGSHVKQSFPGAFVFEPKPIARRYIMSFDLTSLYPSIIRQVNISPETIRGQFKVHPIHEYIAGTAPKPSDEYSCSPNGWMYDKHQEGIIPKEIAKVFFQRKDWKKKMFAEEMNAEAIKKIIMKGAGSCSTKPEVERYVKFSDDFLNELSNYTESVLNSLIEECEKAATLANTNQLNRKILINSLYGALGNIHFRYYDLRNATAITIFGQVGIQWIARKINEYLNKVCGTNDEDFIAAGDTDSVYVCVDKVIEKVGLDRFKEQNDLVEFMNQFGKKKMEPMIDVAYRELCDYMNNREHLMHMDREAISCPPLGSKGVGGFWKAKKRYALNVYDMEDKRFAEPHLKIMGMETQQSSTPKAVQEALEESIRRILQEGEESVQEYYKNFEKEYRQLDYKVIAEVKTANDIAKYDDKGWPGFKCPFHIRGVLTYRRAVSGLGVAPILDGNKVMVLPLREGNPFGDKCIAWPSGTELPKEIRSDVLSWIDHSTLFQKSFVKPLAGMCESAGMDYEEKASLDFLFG
# method: Counter-screen against bacteriophage T4 DNA polymerase
# Format: biochemical
# experimental_conditions: DRC-2; 40'; concentration 2.5
test_readout: % inhibition T4 40' (%)

>>> quantitative_result("CCCCC(=O)N1CCc2c(nc3cc(-c4ccccc4Cl)[nH]n3c2=O)C1")
6
>>> quantitative_result("Cc1ccc2c(C(=O)NCCc3cccnc3)cc(NC(=O)C(C)C)cc2n1")
8
>>> quantitative_result("O=[N+]([O-])c1ccc(/C=C/c2ccc3ccccc3n2)o1")
25
>>> quantitative_result("Cc1nc(/N=N/c2ccc(C(=O)[O-])cc2)c(COP(=O)([O-])[O-])c(C=O)c1O.[Na+].[Na+].[Na+]")
-20
>>> quantitative_result("O=C1N=C(Nc2cccc(Cl)c2Cl)S/C1=C\\c1ccco1 [Molecule 3, O=C1N=C(S/C/1=C\\c1ccco1)Nc1cccc(c1Cl)Cl]")
26
>>> quantitative_result("O=C1C(=Cc2ccccc2O)Oc2ccc(O)cc21")
10
